# Measured On: T1, TTD of UHRF1 (residues 134–285) (human, UniProt Q96T88 134-285)
# T1 chain: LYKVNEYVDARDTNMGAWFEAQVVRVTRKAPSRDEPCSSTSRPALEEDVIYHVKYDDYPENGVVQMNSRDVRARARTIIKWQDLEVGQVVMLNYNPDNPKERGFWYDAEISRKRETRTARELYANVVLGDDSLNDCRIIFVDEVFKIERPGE
# Test Summary: ITC; in presence of Linker
Measure Name: Kd (µM)

Binder	Measure Name	Observed Result
Spacer of UHRF1 (residues 587–674) (domain or fragment) PGPWTKEGKDRIKKLGLTMQYPEGYLEALANREREKENSKREEEEQQEGGFASPRTGKGKWKRKSAGGGPSRAGSPRRTSKKTKVEPY	Kd	3.73
